Data provenance: patent US7521454B2

- EXPERIMENTAL DETAILS: Gastrointestinal absorption in rat (drug level in blood by HPLC)
- Assay type: in vivo
- CONDITION SUMMARY: blood; dose 10 mg/kg oral, SD male rat; read-out: Cmax
Structures can show the parent of a compound that is named as a salt.

MOLECULE: CCCCOc1nc(N)c2nc(O)n(Cc3ccc(C)nc3)c2n1 [Hydrochloride of Example 25]
Cmax, ng/mL: 150

###

- Test system: IL-4 production
- EXPERIMENTAL DETAILS: Inhibitory activity against Th2 cytokine produced from sensitized spleen cells: IL-4
- Format: cell-based, mouse
- CONDITION SUMMARY: Mus musculus, 72 h; concentration 100 nM, OVA-sensitized BALB/c spleen cells, 3 days; read-out: Inhibitory activity against IL-4 production
Listed compounds paired with reported activity at 0.1 µM
PROPERTY MEASURED: activity at 0.1 µM

COMPOUND: CCCCNc1nc(N)c2nc(O)n(Cc3ccncc3)c2n1
PROPERTY MEASURED: activity at 0.1 µM
RECORDED VALUE: 1%
--
COMPOUND: CCCCNc1nc(N)c2nc(O)n(Cc3ccccc3)c2n1 [Reference Compound 1, 9-Benzyl-2-butylamino-8-hydroxyadenine, reference compound]
PROPERTY MEASURED: activity at 0.1 µM
RECORDED VALUE: 24%
--
COMPOUND: CCCCOc1nc(N)c2nc(O)n(Cc3ccccc3)c2n1 [Reference Compound 2, 9-benzyl-2-butoxy-8-hydroxyadenine, reference compound]
PROPERTY MEASURED: activity at 0.1 µM
RECORDED VALUE: < 1%
--
COMPOUND: CCCCNc1nc(N)c2nc(O)n(Cc3ccccn3)c2n1
PROPERTY MEASURED: activity at 0.1 µM
RECORDED VALUE: 2%
--
COMPOUND: CCCCOc1nc(N)c2nc(O)n(Cc3ccc(OC)nc3)c2n1
PROPERTY MEASURED: activity at 0.1 µM
RECORDED VALUE: < 1%
--
COMPOUND: CCCCNc1nc(N)c2nc(O)n(Cc3ccc(C)nc3)c2n1
PROPERTY MEASURED: activity at 0.1 µM
RECORDED VALUE: < 1%
--
COMPOUND: CCCCNc1nc(N)c2nc(O)n(Cc3cccnc3)c2n1
PROPERTY MEASURED: activity at 0.1 µM
RECORDED VALUE: < 1%
--
COMPOUND: CCCCNc1nc(N)c2nc(O)n(Cc3ccc(OC)nc3)c2n1
PROPERTY MEASURED: activity at 0.1 µM
RECORDED VALUE: < 1%
--
COMPOUND: CCCCOc1nc(N)c2nc(O)n(Cc3ccc(Cl)nc3)c2n1
PROPERTY MEASURED: activity at 0.1 µM
RECORDED VALUE: < 1%
--
COMPOUND: CC(C)Cn1cnc2c(N)nc3ccccc3c21 [Comparative Example 1, Imiquimod, reference compound]
PROPERTY MEASURED: activity at 0.1 µM
RECORDED VALUE: < 1%
--
COMPOUND: CCCCOc1nc(N)c2nc(O)n(Cc3ccc(C)nc3)c2n1
PROPERTY MEASURED: activity at 0.1 µM
RECORDED VALUE: < 1%

###

Listed compounds paired with reported activity at 0.001 µM
- System: IL-4 production
- EXPERIMENTAL DETAILS: Inhibitory activity against Th2 cytokine produced from sensitized spleen cells: IL-4
- Format: cell-based, mouse
- CONDITION SUMMARY: Mus musculus, 72 h; concentration 1 nM, OVA-sensitized BALB/c spleen cells, 3 days; read-out: Inhibitory activity against IL-4 production
- Experimental: A 7-week-old BALB/c mouse was immunized intraperitoneally with aluminum hydroxide gel (4 mg, 100 μl) having 10 μg of ovalbumin adsorbed thereon, and it was subjected to additional immunization with the same agent 14 days later. Seven days thereafter, spleen was taken out, and suspended in RPMI-1640 comprising inactivated fetal bovine serum (10%), 2-mercaptoethanol ([…]), penicillin G (100 U/ml), and streptomycin (100 μg/ml). […] The cytokine level in the culture supernatant was quantified by ELISA. […]
PROPERTY MEASURED: activity at 0.001 µM

COMPOUND: CCCCOc1nc(N)c2nc(O)n(Cc3ccc(C)nc3)c2n1
RECORDED VALUE: 2%
//
COMPOUND: CCCCNc1nc(N)c2nc(O)n(Cc3ccncc3)c2n1
RECORDED VALUE: 88%
//
COMPOUND: CCCCOc1nc(N)c2nc(O)n(Cc3ccccc3)c2n1 [Reference Compound 2, 9-benzyl-2-butoxy-8-hydroxyadenine, reference compound]
RECORDED VALUE: 48%
//
COMPOUND: CCCCOc1nc(N)c2nc(O)n(Cc3ccc(Cl)nc3)c2n1
RECORDED VALUE: 7%
//
COMPOUND: CCCCNc1nc(N)c2nc(O)n(Cc3ccc(C)nc3)c2n1
RECORDED VALUE: 30%

###

- EXPERIMENTAL DETAILS: Solubility in citric acid/disodium phosphate buffers
- CONDITION SUMMARY: citric acid/disodium phosphate buffer, pH 2.5, aqueous buffer, thermodynamic from solid

COMPOUND: CCCCOc1nc(N)c2nc(O)n(Cc3cccnc3)c2n1
READOUT RELATION: =
solubility at 30 min / µg/mL: 784

COMPOUND: CCCCNc1nc(N)c2nc(O)n(Cc3cccnc3C)c2n1
READOUT RELATION: >
solubility at 30 min / µg/mL: 1000

COMPOUND: CCCCOc1nc(N)c2nc(O)n(Cc3ccc(N4CCOCC4)nc3)c2n1
READOUT RELATION: =
solubility at 30 min / µg/mL: 140

COMPOUND: CCCCOc1nc(N)c2nc(O)n(Cc3cccnc3C)c2n1
READOUT RELATION: >
solubility at 30 min / µg/mL: 1000

COMPOUND: CCCCOc1nc(N)c2nc(O)n(Cc3ccncc3)c2n1
READOUT RELATION: =
solubility at 30 min / µg/mL: 350

COMPOUND: CCCCOc1nc(N)c2nc(O)n(Cc3ccccc3)c2n1 [Reference Compound 2, 9-benzyl-2-butoxy-8-hydroxyadenine, reference compound]
READOUT RELATION: =
solubility at 30 min / µg/mL: 2

COMPOUND: CCCCOc1nc(N)c2nc(O)n(Cc3ccc(C)nc3)c2n1
READOUT RELATION: >
solubility at 30 min / µg/mL: 1000

COMPOUND: COc1nc(N)c2nc(O)n(Cc3cccnc3)c2n1
READOUT RELATION: >
solubility at 30 min / µg/mL: 1000

COMPOUND: CCCCOc1nc(N)c2nc(O)n(Cc3ccc(N(C)C)nc3)c2n1
READOUT RELATION: =
solubility at 30 min / µg/mL: 293

COMPOUND: CCCCNc1nc(N)c2nc(O)n(Cc3ccc(N(C)C)nc3)c2n1
READOUT RELATION: =
solubility at 30 min / µg/mL: 27000

COMPOUND: CCCCNc1nc(N)c2nc(O)n(Cc3ccccn3)c2n1
READOUT RELATION: =
solubility at 30 min / µg/mL: 8810

COMPOUND: CCCCNc1nc(N)c2nc(O)n(Cc3ccncc3)c2n1
READOUT RELATION: >
solubility at 30 min / µg/mL: 80000

COMPOUND: CCCCNc1nc(N)c2nc(O)n(Cc3cccnc3)c2n1
READOUT RELATION: =
solubility at 30 min / µg/mL: 15000

COMPOUND: CCCCNc1nc(N)c2nc(O)n(Cc3ccc(OC)nc3)c2n1
READOUT RELATION: =
solubility at 30 min / µg/mL: 130

COMPOUND: CCCCNc1nc(N)c2nc(O)n(Cc3ccccc3)c2n1 [Reference Compound 1, 9-Benzyl-2-butylamino-8-hydroxyadenine, reference compound]
READOUT RELATION: =
solubility at 30 min / µg/mL: 26

###

- System: IL-5 production
- EXPERIMENTAL DETAILS: Inhibitory activity against Th2 cytokine produced from sensitized spleen cells: IL-5
- Type: cell-based, mouse
- CONDITION SUMMARY: Mus musculus, 72 h; concentration 0.1 nM, OVA-sensitized BALB/c spleen cells, 3 days
- Experimental: A 7-week-old BALB/c mouse was immunized intraperitoneally with aluminum hydroxide gel (4 mg, 100 μl) having 10 μg of ovalbumin adsorbed thereon, and it was subjected to additional immunization with the same agent 14 days later. Seven days thereafter, spleen was taken out, and suspended in RPMI-1640 comprising inactivated fetal bovine serum (10%), 2-mercaptoethanol ([…]), penicillin G (100 U/ml), and streptomycin (100 μg/ml). […] The cytokine level in the culture supernatant was quantified by ELISA. […]
Listed compounds paired with reported activity at 0.0001 µM
PROPERTY MEASURED: activity at 0.0001 µM (%)

COMPOUND: CCCCOc1nc(N)c2nc(O)n(Cc3ccc(OC)nc3)c2n1 [Example 2]
MEASUREMENT TARGET: IL-5 production
PROPERTY MEASURED: activity at 0.0001 µM
UNIT OF MEASUREMENT: %
RECORDED VALUE: 98

COMPOUND: CCCCOc1nc(N)c2nc(O)n(Cc3ccccc3)c2n1 [Reference Compound 2, 9-benzyl-2-butoxy-8-hydroxyadenine, reference compound]
MEASUREMENT TARGET: IL-5 production
PROPERTY MEASURED: activity at 0.0001 µM
UNIT OF MEASUREMENT: %
RECORDED VALUE: 99

COMPOUND: CCCCOc1nc(N)c2nc(O)n(Cc3ccc(Cl)nc3)c2n1 [Example 1]
MEASUREMENT TARGET: IL-5 production
PROPERTY MEASURED: activity at 0.0001 µM
UNIT OF MEASUREMENT: %
RECORDED VALUE: 116

COMPOUND: CCCCOc1nc(N)c2nc(O)n(Cc3ccc(C)nc3)c2n1 [Example 25]
MEASUREMENT TARGET: IL-5 production
PROPERTY MEASURED: activity at 0.0001 µM
UNIT OF MEASUREMENT: %
RECORDED VALUE: 102
